# TARGET_DESC: hFXR (Homo sapiens)
# ASSAY_DETAILS: In Vitro FXR Assay (TK)
# CONDITION_SET: CV-1 cells transfected with hFXR, hRXR, TK-ECRE-luc and pCMX-YFP; compounds incubated 18 hrs; luminescence
pEC50: −log10 of the molar value.
QUANTITY: pEC50

• COc1ccc(-c2ccc(CN(C(=O)CC(C)(C)C)c3nccc4cc(Br)ccc34)cc2)cc1C [Compound 4] = ≥ 6.00
• COc1ccc(-c2ccc(CN(C(=O)CC(C)(C)C)c3nccc4cc(OCCCO)ccc34)cc2)cc1C [Compound 8] = ≥ 6.00
• COc1cccc(-c2ccc3c(N(Cc4ccc(-c5ccc(OC)c(C)c5)cc4)C(=O)CC(C)(C)C)nccc3c2)n1 [Compound 15.01] = 5.00 to 6.00
• COc1ccc(-c2ccc(CN(C(=O)CC(C)(C)C)c3nccc4cc(CCO)ccc34)cc2)cc1C [Compound 25] = ≥ 6.00

* * *

Recorded EC50 by entry
# TARGET_DESC: hFXR (Homo sapiens)
# ASSAY_DETAILS: In Vitro FXR Assay (TK)
# CONDITION_SET: CV-1 cells transfected with hFXR, hRXR, TK-ECRE-luc and pCMX-YFP; compounds incubated 18 hrs; luminescence
# Protocol: CV-1 cells were seeded at a density of 2,000,000 cells in a T175 flask with DMEM+10% charcoal double-stripped FBS and incubated at 37° C. in 5% CO2 for 18 h (O/N). After 18 h of incubation, the medium in the T175 flask was changed with fresh DMEM+10% charcoal super-stripped serum. […] Compounds were serially diluted in DMSO and added to transfected CV-1 cells. […] The next day cells were lysed and examined for luminescence.
QUANTITY: EC50

* COc1ccc([C@H]2CC[C@H](CN(C(=O)CC(C)(C)C)c3nccc4cc(C)ccc34)CC2)cc1C | ≤ 1000 nM
* COc1ccc(-c2ccc(CN(C(=O)CC(C)(C)C)c3nccc4cc(OC5CCNCC5)ccc34)cc2)cc1C | > 10000 nM
* COc1ccc(-c2ccc(CN(C(=O)CC(C)(C)C)c3nccc4cc(OC5CCN(C)CC5)ccc34)cc2)cc1C | > 10000 nM
* COc1ccc2ccnc(N(Cc3ccc(-c4ccc(OC)c(C)c4)cc3)C(=O)CC(C)(C)C)c2c1 | ≤ 1000 nM
* COc1ccc(-c2ccc(CN(C(=O)CC(C)(C)C)c3nccc4cc(-c5nccs5)ccc34)cc2)cc1C | ≤ 1000 nM
* COc1ccc(-c2ccc(CN(C(=O)CC(C)(C)C)c3nccc4cc(N(C)CCO)ccc34)cc2)cc1C | ≤ 1000 nM
* COc1ccc(-c2ccc(CN(C(=O)CC(C)(C)C)c3nccc4cc(COCC(=O)O)ccc34)cc2)cc1C | 1000 to 10000 nM
* COc1ccc(-c2ccc(CN(C(=O)CC(C)(C)C)c3nccc4cc(OCC[S+](C)[O-])ccc34)cc2)cc1C (centres unmarked) | ≤ 1000 nM
* COc1ccc(-c2ccc(CN(C(=O)CC(C)(C)C)c3nccc4c(C#N)cccc34)cc2)cc1C | > 10000 nM
* COc1ccc(-c2ccc(CN(C(=O)CC(C)(C)C)c3nccc4cc(OCC(N)=O)ccc34)cc2)cc1C | ≤ 1000 nM
* COc1ccc(-c2ccc(CN(C(=O)CC(C)(C)C)c3nccc4cc(OC(C)C)ccc34)cc2)cc1C | ≤ 1000 nM
* COc1ccc(-c2ccc(CN(C(=O)CC(C)(C)C)c3nccc4cc(N5CCCCC5)ccc34)cc2)cc1C | ≤ 1000 nM
* COc1ccc2c(N(Cc3ccc(-c4ccc(OC)c(C)c4)cc3CO)C(=O)CC(C)(C)C)nccc2c1 | 1000 to 10000 nM
* CNC(=O)c1ccc2c(N(Cc3ccc(-c4ccc(OC)c(C)c4)cc3)C(=O)CC(C)(C)C)nccc2c1 | 1000 to 10000 nM
* COc1ccc(-c2ccc(CN(C(=O)CC(C)(C)C)c3nccc4cnccc34)cc2)cc1C | 1000 to 10000 nM
* COC(=O)COc1ccc2c(N(Cc3ccc(-c4ccc(OC)c(C)c4)cc3)C(=O)CC(C)(C)C)nccc2c1 | 1000 to 10000 nM
* COc1ccc(-c2ccc(CN(C(=O)CC(C)(C)C)c3nccc4cc(CCCO)ccc34)cc2)cc1C | ≤ 1000 nM
* COc1ccc(-c2ccc(CN(C(=O)CC(C)(C)C)c3cccc4ccncc34)cc2)cc1C | > 10000 nM
* COC(=O)Nc1ccc2c(N(Cc3ccc(-c4ccc(OC)c(C)c4)cc3)C(=O)CC(C)(C)C)nccc2c1 | ≤ 1000 nM
* COc1ccc(-c2ccc(CN(C(=O)CC(C)(C)C)c3nccc4cc(NCCO)ccc34)cc2)cc1C | ≤ 1000 nM
* COc1ccc(-c2ccc(CN(C(=O)CC(C)(C)C)c3ncnc4ccccc34)cc2)cc1C | 1000 to 10000 nM
* COc1ccc(-c2ccc(CN(C(=O)CC(C)(C)C)c3nccc4cc(OCCO)ccc34)cc2)cc1C | ≤ 1000 nM
* COc1ccc(-c2ccc(CN(C(=O)CC(C)(C)C)c3nccc4cc(OCCCCO)ccc34)cc2)cc1C | ≤ 1000 nM
* COc1ccc(-c2ccc(CN(C(=O)CC(C)(C)C)c3nccc4c(OC)cccc34)cc2)cc1C | 1000 to 10000 nM
* COc1ccc(-c2ccc(CN(C(=O)CC(C)(C)C)c3nccc4cc(C(C)O)ccc34)cc2)cc1C (centres unmarked) | ≤ 1000 nM
* CNc1ccc2c(N(Cc3ccc(-c4ccc(OC)c(C)c4)cc3)C(=O)CC(C)(C)C)nccc2c1 | ≤ 1000 nM
* COc1ccc(-c2ccc(CN(C(=O)CC(C)(C)C)c3nccc4cc(N(C)C)ccc34)cc2)cc1C | ≤ 1000 nM
* COc1ccc2c(N(C[C@H]3CC[C@H](c4ccc(OC)c(C)c4)CC3)C(=O)CC(C)(C)C)nccc2c1 | ≤ 1000 nM
* COc1ccc([C@H]2CC[C@H](CN(C(=O)CC(C)(C)C)c3nccc4cc(CO)ccc34)CC2)cc1C | ≤ 1000 nM

* * *

# TARGET_DESC: hFXR (Homo sapiens, UniProt Q96RI1)
# Sequence (Q96RI1 whole entry): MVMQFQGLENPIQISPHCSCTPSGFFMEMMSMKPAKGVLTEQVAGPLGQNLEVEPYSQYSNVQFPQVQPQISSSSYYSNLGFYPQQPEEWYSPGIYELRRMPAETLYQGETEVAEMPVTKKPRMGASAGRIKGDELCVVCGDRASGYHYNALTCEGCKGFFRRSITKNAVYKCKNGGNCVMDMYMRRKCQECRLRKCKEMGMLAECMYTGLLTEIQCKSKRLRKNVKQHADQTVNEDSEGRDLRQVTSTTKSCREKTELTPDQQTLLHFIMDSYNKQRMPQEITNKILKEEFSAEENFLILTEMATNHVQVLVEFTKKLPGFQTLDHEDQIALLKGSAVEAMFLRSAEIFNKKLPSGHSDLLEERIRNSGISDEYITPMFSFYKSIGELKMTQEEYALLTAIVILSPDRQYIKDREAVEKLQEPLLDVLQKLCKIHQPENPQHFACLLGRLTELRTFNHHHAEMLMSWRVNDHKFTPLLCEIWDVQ
# Sequence (P19793 whole entry partner): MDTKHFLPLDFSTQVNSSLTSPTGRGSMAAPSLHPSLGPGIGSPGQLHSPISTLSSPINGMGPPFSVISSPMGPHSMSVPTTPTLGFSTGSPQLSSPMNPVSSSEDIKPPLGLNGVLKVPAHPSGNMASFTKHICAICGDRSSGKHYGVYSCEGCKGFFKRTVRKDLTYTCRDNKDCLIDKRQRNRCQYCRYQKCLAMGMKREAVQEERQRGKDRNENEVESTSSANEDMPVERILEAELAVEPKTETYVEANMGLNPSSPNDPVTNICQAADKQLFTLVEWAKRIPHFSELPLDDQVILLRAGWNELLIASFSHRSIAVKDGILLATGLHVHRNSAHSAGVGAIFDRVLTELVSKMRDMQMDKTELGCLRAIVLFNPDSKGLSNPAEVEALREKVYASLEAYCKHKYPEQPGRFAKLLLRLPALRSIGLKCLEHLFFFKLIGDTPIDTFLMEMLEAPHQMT
# ASSAY_DETAILS: In Vitro FXR Assay (TK)
# CONDITION_SET: CV-1 cells transfected with hFXR, hRXR, TK-ECRE-luc and pCMX-YFP; compounds incubated 18 hrs; luminescence
QUANTITY: EC50

• COc1ccc(-c2ccc(CN(C(=O)CC(C)(C)C)c3nccc4sccc34)cc2)cc1C [Compound 4.05] = ≤ 1000 nM
• COc1ccc2c(N(Cc3ccc(-c4ccc(OC)c(C)c4)cc3)C(=O)CC(C)(C)C)nccc2c1 [Compound 4.02] = ≤ 1000 nM
• CNC(=O)COc1ccc2c(N(Cc3ccc(-c4ccc(OC)c(C)c4)cc3)C(=O)CC(C)(C)C)nccc2c1 [Compound 8.01] = 1000 to 10000 nM
• COC(=O)c1cc(-c2ccc(OC)c(C)c2)ccc1CN(C(=O)CC(C)(C)C)c1nccc2cc(OC)ccc12 [Compound 20.01] = > 10000 nM
• COc1ccc(-c2ccc(CN(C(=O)CC(C)(C)C)c3nccc4cc(OC5CN(C)C5)ccc34)cc2)cc1C [Compound 30] = > 10000 nM
• COc1ccc(-c2ccc(CN(C(=O)CC(C)(C)C)c3nccc4cc(N5CCOCC5)ccc34)cc2)cc1C [Compound 6.06] = ≤ 1000 nM
• COc1ccc(-c2ccc(CN(C(=O)CC(C)(C)C)c3nccc4cc(COCC(=O)N(C)C)ccc34)cc2)cc1C [Compound 19.02] = 1000 to 10000 nM

* * *

Recorded pEC50 by entry
# TARGET_DESC: hFXR (Homo sapiens, UniProt Q96RI1)
# ASSAY_DETAILS: In Vitro FXR Assay (TK)
# CONDITION_SET: CV-1 cells transfected with hFXR, hRXR, TK-ECRE-luc and pCMX-YFP; compounds incubated 18 hrs; luminescence
pEC50: −log10 of the molar value.
QUANTITY: pEC50

• COc1ccc(-c2ccc(CN(C(=O)CC(C)(C)C)c3nccc4cc(O)ccc34)cc2)cc1C = ≥ 6.00
• COc1ccc2c(N(Cc3ccc(-c4ccc(OC)c(C)c4)c(CO)c3)C(=O)CC(C)(C)C)nccc2c1 = 5.00 to 6.00
• COc1ccc(-c2ccc(CN(C(=O)CC(C)(C)C)c3nccc4cc(-c5ccccn5)ccc34)cc2)cc1C = ≥ 6.00
• COc1ccc(-c2ccc(CN(C(=O)CC(C)(C)C)c3nccc4cc(OC5CCN(C(=O)OC(C)(C)C)CC5)ccc34)cc2)cc1C = < 5.00
• COc1ccc(-c2ccc(CN(C(=O)CC(C)(C)C)c3nccc4cc(OCC(C)CO)ccc34)cc2)cc1C (stereo not drawn) = ≥ 6.00
• COc1ccc(-c2ccc(CN(C(=O)CC(C)(C)C)c3nccc4cc(N5CCC(O)C5)ccc34)cc2)cc1C (stereo not drawn) = ≥ 6.00
• COc1ccc(-c2ccc(CN(C(=O)CC(C)(C)C)c3nccc4ccncc34)cc2)cc1C = 5.00 to 6.00
• COc1ccc(-c2ccc(CN(C(=O)CC(C)(C)C)c3nccc4cc(OCC(=O)N(C)C)ccc34)cc2)cc1C = ≥ 6.00
• COc1ccc(-c2ccc(CN(C(=O)CC(C)(C)C)c3nccc4ccc(C#N)cc34)cc2)cc1C = 5.00 to 6.00
• COc1ccc(-c2ccc(CN(C(=O)CC(C)(C)C)c3nccc4ccsc34)cc2)cc1C = ≥ 6.00
• COc1ccc(-c2ccc(CN(C(=O)CC(C)(C)C)c3nccc4cc(N5CCC(O)CC5)ccc34)cc2)cc1C = ≥ 6.00
• COc1ccc(-c2ccc(CN(C(=O)CC(C)(C)C)c3nccc4cc(N5CC(O)C5)ccc34)cc2)cc1C = ≥ 6.00
• COc1ccc(-c2ccc(CN(C(=O)CC(C)(C)C)c3nccc4cc(OC5COC5)ccc34)cc2)cc1C = ≥ 6.00
• COc1ccc(-c2ccc(CN(C(=O)CC(C)(C)C)c3cccc4cnccc34)cc2)cc1C = < 5.00
• COc1ccc(-c2ccc(CN(C(=O)CC(C)(C)C)c3nccc4cc(OC5CNC5)ccc34)cc2)cc1C = 5.00 to 6.00
